Origin of the recorded values: patent US20230203058A1

# system tested: human ENT1 (Homo sapiens, UniProt Q99808)
# run description: ENT1 binding assay (competition with Sahenta-DY647 on JAR cells)
# Set-up: JAR cells expressing ENT1 were bought from ATCC® (HTB-144TM); host or cells: JAR cells (human choriocarcinoma line; whole cells)
# assay context: competition with Sahenta-DY647 100 nM, 4° C.
measurement label: IC50

[
  {
    "molecule": "COc1cc(C(=O)O[C@H]2CCCOc3cc(cc(OC)c3OC)C(=O)OCCCN3CCCN(CC2)CC3)cc(OC)c1OC [Compound 2]",
    "endpoint result": "1 to 20 nM"
  },
  {
    "molecule": "COc1cc(C(=O)O[C@H]2CCCOc3cc(cc(Cl)c3C(N)=O)C(=O)NCCCN3CCCN(CC2)CC3)cc(OC)c1OC [Compound 121]",
    "endpoint result": "20 to 500 nM"
  },
  {
    "molecule": "COc1cc2cc(c1OC)OCCCC(OC(=O)c1cc(Cl)c(Cl)cc1F)CCN1CCCN(CCCOC2=O)CC1 (stereo not shown) [Compound 91]",
    "endpoint result": "1 to 20 nM"
  },
  {
    "molecule": "COc1cc(C(=O)O[C@@H]2CCCOc3cc(cc(Cl)c3C(N)=O)C(=O)NCCCN3CCCN(CC2)CC3)cc(OC)c1OC [Compound 28]",
    "endpoint result": "1 to 20 nM"
  },
  {
    "molecule": "COc1cc(C(=O)NC2CCCOc3cc(cc(OC)c3OC)C(=O)OCCCN3CCCN(CC2)CC3)cc(OC)c1OC (stereo not shown) [Compound 3]",
    "endpoint result": "> 500 nM"
  },
  {
    "molecule": "COc1cc2cc(c1OC)OCCCC(OC(=O)C1CCCC(OC)C1)CCN1CCCN(CCCOC2=O)CC1 (stereo not shown) [Compound 111]",
    "endpoint result": "1 to 20 nM"
  },
  {
    "molecule": "COc1cc(C(=O)O[C@H]2CCCOc3cc(cc(OC)c3OC)C(=O)NCCCN3CCCN(CC2)CC3)cc(OC)c1OC [Compound 9]",
    "endpoint result": "> 500 nM"
  }
]

---

# system tested: human ENT1 (Homo sapiens, UniProt Q99808)
# Sequence (Q99808 1-456): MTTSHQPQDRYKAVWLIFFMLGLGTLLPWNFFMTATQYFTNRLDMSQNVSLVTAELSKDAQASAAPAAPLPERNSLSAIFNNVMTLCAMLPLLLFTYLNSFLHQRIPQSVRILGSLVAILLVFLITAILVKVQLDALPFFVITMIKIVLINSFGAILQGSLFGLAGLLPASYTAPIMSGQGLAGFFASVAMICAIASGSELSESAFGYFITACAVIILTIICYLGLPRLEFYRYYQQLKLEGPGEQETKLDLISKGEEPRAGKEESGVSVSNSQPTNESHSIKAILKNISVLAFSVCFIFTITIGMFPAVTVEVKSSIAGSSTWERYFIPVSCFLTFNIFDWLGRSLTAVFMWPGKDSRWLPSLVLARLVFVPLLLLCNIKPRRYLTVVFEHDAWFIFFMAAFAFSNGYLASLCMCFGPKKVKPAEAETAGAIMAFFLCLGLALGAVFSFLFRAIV
# run description: ENT1 binding assay (competition with Sahenta-DY647 on JAR cells)
# Design: JAR cells expressing ENT1 were bought from ATCC® (HTB-144TM); host or cells: JAR cells (human choriocarcinoma line; whole cells)
# assay context: competition with Sahenta-DY647 100 nM, 4° C.
pIC50: −log10 of the molar value.
Each record here notes measured pIC50.

[
  {
    "compound": "COc1cc(C(=O)OC2CCCOc3cc(cc(Cl)c3Cl)C(=O)OCCCN3CCCN(CC2)CC3)cc(OC)c1OC (stereo not shown) [Compound 21]",
    "pIC50": "7.70 to 9.00"
  },
  {
    "compound": "COc1cc2cc(c1OC)OCCC[C@H](OC(=O)c1ccccc1)CCN1CCCN(CCCOC2=O)CC1 [Compound 33]",
    "pIC50": "< 6.30"
  },
  {
    "compound": "COc1cc2cc(c1OC)OCCC[C@H](O/N=C/c1ccccc1)CCN1CCCN(CCCNC2=O)CC1 (stereo in doubt) [Compound 116]",
    "pIC50": "< 6.30"
  },
  {
    "compound": "COc1cc2cc(c1OC)OCCCC(O)CCN1CCCN(CCCOC2=O)CC1 (stereo not shown) [Compound 38]",
    "pIC50": "< 6.30"
  },
  {
    "compound": "COCCC(=O)OC1CCCOc2cc(cc(OC)c2OC)C(=O)OCCCN2CCCN(CC1)CC2 (stereo not shown) [Compound 93]",
    "pIC50": "7.70 to 9.00"
  },
  {
    "compound": "COc1cc(C(=O)O[C@@H]2CCCn3cc4c(Cl)cc(cc4n3)C(=O)NCCCN3CCCN(CC2)CC3)cc(OC)c1OC [Compound 26]",
    "pIC50": "< 6.30"
  },
  {
    "compound": "COc1cc(C(=O)O[C@@H]2CCCOc3cc(cc(OC)c3OC)C(=O)OCCCC3CCN(CC3)CC2)cc(OC)c1OC [Compound 34]",
    "pIC50": "7.70 to 9.00"
  }
]

---

# system tested: human ENT1 (Homo sapiens)
# run description: ENT1 binding assay (competition with Sahenta-DY647 on JAR cells)
# Parameters: JAR cells expressing ENT1 were bought from ATCC® (HTB-144TM); host or cells: JAR cells (human choriocarcinoma line; whole cells)
# assay context: competition with Sahenta-DY647 100 nM, 4° C.
pIC50: −log10 of the molar value.

[
  {
    "compound": "COc1cc2cc(c1OC)OCCCC(OC(=O)c1ccc(F)cc1)CCN1CCCN(CCCOC2=O)CC1 (centres unmarked) [Compound 29]",
    "pIC50": "7.70 to 9.00"
  },
  {
    "compound": "COc1cc2cc(c1OC)OCCCC(OC(=O)c1cccc3ncccc13)CCN1CCCN(CCCOC2=O)CC1 (centres unmarked) [Compound 56]",
    "pIC50": "7.70 to 9.00"
  },
  {
    "compound": "COc1cc(C(=O)OC2CCCOc3cc(cc(OC)c3OC)C(=O)OCCCN3CCN(CC2)CC(F)(F)C3)cc(OC)c1OC (centres unmarked) [Compound 4]",
    "pIC50": "7.70 to 9.00"
  },
  {
    "compound": "COc1cc2cc(c1OC)OCCC[C@H](O)CCN1CCCN(CCCOC2=O)CC1 [Compound 40]",
    "pIC50": "< 6.30"
  },
  {
    "compound": "COc1cc2cc(c1OC)OCCCC(OC(=O)CCn1cccn1)CCN1CCCN(CCCOC2=O)CC1 (centres unmarked) [Compound 94]",
    "pIC50": "7.70 to 9.00"
  },
  {
    "compound": "COc1cc(C(=O)OC2CCCOc3cc(cc(OC)c3OC)C(=O)N(C)CCCN3CCCN(CC2)CC3)cc(OC)c1OC (centres unmarked) [Compound 11]",
    "pIC50": "7.70 to 9.00"
  },
  {
    "compound": "COc1cc2cc(c1OC)OCCCC(OC(=O)CCNC(C)=O)CCN1CCCN(CCCOC2=O)CC1 (centres unmarked) [Compound 100]",
    "pIC50": "7.70 to 9.00"
  },
  {
    "compound": "COc1cc2cc(c1OC)OCCCC(OC(=O)c1ccc(OC(C)C)cc1)CCN1CCCN(CCCOC2=O)CC1 (centres unmarked) [Compound 43]",
    "pIC50": "6.30 to 7.70"
  },
  {
    "compound": "COc1cc(C(=O)O[C@H]2CCCOc3cccc(c3)C(=O)OCCCN3CCCN(CC2)CC3)cc(OC)c1OC (stereo in doubt) [Compound 17]",
    "pIC50": "< 6.30"
  },
  {
    "compound": "COc1cc(C(=O)O[C@H]2CCCOc3cc(cc(OC)c3OC)C(=O)N(C)CCCN3CCCN(CC2)CC3)cc(OC)c1OC [Compound 12]",
    "pIC50": "< 6.30"
  },
  {
    "compound": "COc1cc2cc(c1OC)OCCCC(OC(=O)C1CC(=O)N(Cc3ccccc3)C1)CCN1CCCN(CCCOC2=O)CC1 (centres unmarked) [Compound 69]",
    "pIC50": "7.70 to 9.00"
  },
  {
    "compound": "COc1cc2cc(c1OC)OCCCC(OC(=O)[C@H]1[C@@H]3COC[C@@H]31)CCN1CCCN(CCCOC2=O)CC1 (some centres unmarked) [Compound 67]",
    "pIC50": "6.30 to 7.70"
  },
  {
    "compound": "COc1cc(C(=O)O[C@H]2CCCn3cc4c(Cl)cc(cc4n3)C(=O)NCCCN3CCCN(CC2)CC3)cc(OC)c1OC [Compound 25]",
    "pIC50": "< 6.30"
  },
  {
    "compound": "COc1cc2cc(c1OC)OCCCC(OC(=O)c1ccc(F)c(Cl)c1)CCN1CCCN(CCCOC2=O)CC1 (centres unmarked) [Compound 27]",
    "pIC50": "7.70 to 9.00"
  },
  {
    "compound": "COc1cc2cc(c1OC)OCCCC(OC(=O)CCC#N)CCN1CCCN(CCCOC2=O)CC1 (centres unmarked) [Compound 95]",
    "pIC50": "7.70 to 9.00"
  },
  {
    "compound": "COc1cc2cc(c1OC)OCCCC(OC(=O)c1ccc(-c3cnco3)cc1)CCN1CCCN(CCCOC2=O)CC1 (centres unmarked) [Compound 90]",
    "pIC50": "7.70 to 9.00"
  },
  {
    "compound": "COc1cc(C(=O)OC2CCCOc3cc(cc(Cl)c3C#N)C(=O)NCCCN3CCCN(CC2)CC3)cc(OC)c1OC (centres unmarked) [Compound 123]",
    "pIC50": "7.70 to 9.00"
  },
  {
    "compound": "COc1cc2cc(c1OC)OCCCC(OC(=O)C1CCCCC1)CCN1CCCN(CCCOC2=O)CC1 (centres unmarked) [Compound 63]",
    "pIC50": "7.70 to 9.00"
  },
  {
    "compound": "COc1cc2cc(c1OC)OCCCC(OC(=O)CCC(F)(F)F)CCN1CCCN(CCCOC2=O)CC1 (centres unmarked) [Compound 62]",
    "pIC50": "7.70 to 9.00"
  },
  {
    "compound": "COc1cc2cc(c1OC)OCCCC(O/N=C\\c1ccccc1)CCN1CCCN(CCCOC2=O)CC1 (centres unmarked) [Compound 37]",
    "pIC50": "6.30 to 7.70"
  },
  {
    "compound": "COc1cc(C(=O)O[C@H]2CCCOc3cc(cc(Cl)c3Cl)C(=O)OCCCN3CCCN(CC2)CC3)cc(OC)c1OC [Compound 22]",
    "pIC50": "6.30 to 7.70"
  },
  {
    "compound": "O=C1NCCCN2CCCN(CC[C@@H](OC(=O)c3ccccc3)CCCOc3cccc1c3)CC2 (stereo in doubt) [Compound 19]",
    "pIC50": "< 6.30"
  },
  {
    "compound": "COc1cc2cc(c1OC)OCCCC(n1nnc(-c3ccccc3)n1)CCN1CCCN(CCCOC2=O)CC1 (centres unmarked) [Compound 107]",
    "pIC50": "7.70 to 9.00"
  },
  {
    "compound": "COc1cc2cc(c1OC)OCCCC(OC(=O)c1ccc(F)c(C(F)(F)F)c1)CCN1CCCN(CCCOC2=O)CC1 (centres unmarked) [Compound 81]",
    "pIC50": "7.70 to 9.00"
  },
  {
    "compound": "COc1cc2cc(c1OC)OCCCC(OC(=O)C1CCC(OC)CC1)CCN1CCCN(CCCOC2=O)CC1 (centres unmarked) [Compound 70]",
    "pIC50": "7.70 to 9.00"
  },
  {
    "compound": "COc1cc(C(=O)O[C@@H]2CCCOc3cc(cc(Cl)c3Cl)C(=O)OCCCN3CCCN(CC2)CC3)cc(OC)c1OC [Compound 23]",
    "pIC50": "6.30 to 7.70"
  },
  {
    "compound": "COc1cc2cc(c1OC)OCCCC(OC(=O)CCC(=O)N(C)C)CCN1CCCN(CCCOC2=O)CC1 (centres unmarked) [Compound 99]",
    "pIC50": "7.70 to 9.00"
  },
  {
    "compound": "COc1cc2cc(c1OC)OCCCC(OC(=O)C1CCC(C(F)(F)F)CC1)CCN1CCCN(CCCOC2=O)CC1 (centres unmarked) [Compound 106]",
    "pIC50": "7.70 to 9.00"
  },
  {
    "compound": "COc1cc2cc(c1OC)OCCCC(OC(=O)c1ccc(Br)c(C#N)c1)CCN1CCCN(CCCOC2=O)CC1 (centres unmarked) [Compound 48]",
    "pIC50": "7.70 to 9.00"
  }
]
